Target: T1, MAdCAM-IgG1 Fc fusion protein (human)
T1 construct: Made in CHO-DHFR cells; also called MAdCAM-IgFc
T1 sequence (chain, as listed by the source limits assumed): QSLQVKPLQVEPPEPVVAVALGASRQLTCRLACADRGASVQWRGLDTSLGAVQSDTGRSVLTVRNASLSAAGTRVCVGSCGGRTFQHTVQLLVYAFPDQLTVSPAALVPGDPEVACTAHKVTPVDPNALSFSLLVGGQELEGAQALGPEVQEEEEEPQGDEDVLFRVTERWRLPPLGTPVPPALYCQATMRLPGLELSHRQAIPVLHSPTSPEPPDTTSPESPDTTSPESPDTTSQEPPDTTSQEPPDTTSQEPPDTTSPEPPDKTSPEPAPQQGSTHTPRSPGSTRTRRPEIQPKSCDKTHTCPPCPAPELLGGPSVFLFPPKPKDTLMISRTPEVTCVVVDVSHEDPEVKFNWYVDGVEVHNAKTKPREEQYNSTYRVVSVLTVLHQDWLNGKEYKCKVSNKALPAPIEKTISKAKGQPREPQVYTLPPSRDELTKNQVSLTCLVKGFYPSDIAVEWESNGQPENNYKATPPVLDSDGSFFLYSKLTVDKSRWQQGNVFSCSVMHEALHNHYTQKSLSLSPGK
Assay: SPR BIAcore protocol 1: mAb captured, MAdCAM-IgG1 Fc injected
recordedEndpoint: koff (s⁻¹)
Express your answer in s⁻¹, writing the number without its unit.

binder	recordedValue
anti-MAdCAM monoclonal antibody 6.73.2 (antibody, human IgG4, kappa, V domains shown, human IgG4 kappa from hybridoma 6.73.2) VH: EVQLLESGGDLVQPGGSLRLSCAASGFTFRSYAMNWVRQAPGKGLEWVSVISGRGGTTYYADSVKGRFTISRDNSKNTLYLQMNSLRAEDAAVYYCAKIAVAGEGLYYYYGMDVWGQGTTVTVSS VL: DIQMTQSPSSLSASVGDRVTFTCRASQNITNYLNWYQQKPGKAPKLLIYAASSLPRGVPSRFRGSGSGTDFTLTISSLQPEDFATYYCQQSYSNPPECGFGQGTTLDIKR	0.00013

Note: attention shifts to another entry.
Q: Any idea what koff was measured for anti-MAdCAM monoclonal antibody 6.34.2 (antibody, human IgG4, kappa, V domains shown, human IgG4 kappa from hybridoma 6.34.2) VH: QVQLVESGGGVVQPGRSLRLSCAASGFTFSSYGMHWVRQAPGKGLEWVAVISNDGNNKYYADSVKGRFTISRDNSKNTLYLQMNSLSAEDTAVYYCARDSTAITYYYYGMDVWGQGTTVTVSS VL: DIQMTQSPSSLSASVGDRVTITCRASQNISSYLNWFQQKPGKAPKLLIYAASGLKRGVPSRFSGSGSGTDFTLTIRTLQPDDFATYSCHQSYSLPFTFGPGTKVDIKR ?
A: 1.9e-05
